List of CD28 scFv signal values.
Target: T1, anti-CD28 scFv (VH-linker 1-VL) (biotinylated (site not stated))
T1 construct: Captured as biotinylated scFv on neutravidin coated plates in the phage ELISA
T1 sequence (scFv, as listed by the source): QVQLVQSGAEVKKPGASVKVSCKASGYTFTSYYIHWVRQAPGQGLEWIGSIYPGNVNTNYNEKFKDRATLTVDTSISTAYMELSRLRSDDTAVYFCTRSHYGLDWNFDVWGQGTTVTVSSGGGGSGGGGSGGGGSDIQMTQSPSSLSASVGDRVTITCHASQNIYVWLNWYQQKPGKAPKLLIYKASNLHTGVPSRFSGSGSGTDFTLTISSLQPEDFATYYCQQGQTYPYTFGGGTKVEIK
Assay: phage ELISA; biotinylated scFv on neutravidin plate; anti-M13-HRP;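 further: crude clonal phage supernatant added to wells pre-incubated with soluble CD28 protein or only blocking buffer, then washed, bound phage read out with an HRP-linked anti-M13 antibody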

BINDER	CD28 scFv signal
MDWCPRSLWNYCFA (on phage (pIII fusion)) [Phage-316 clonal phage peptide]	2.32
MDWCPRDFWAFCFF (on phage (pIII fusion)) [Phage-270 clonal phage peptide]	2.37
MDWCPRYLWTECFS (on phage (pIII fusion)) [Phage-303 clonal phage peptide]	2.42
MDWCARFVGYGCLD (on phage (pIII fusion)) [Phage-232 clonal phage peptide]	0.065
